pIC50 listing for selected molecules.
Target: Serine/threonine-protein kinase PLK2 (Homo sapiens, UniProt Q9NYY3)
Sequence (Q9NYY3 whole entry): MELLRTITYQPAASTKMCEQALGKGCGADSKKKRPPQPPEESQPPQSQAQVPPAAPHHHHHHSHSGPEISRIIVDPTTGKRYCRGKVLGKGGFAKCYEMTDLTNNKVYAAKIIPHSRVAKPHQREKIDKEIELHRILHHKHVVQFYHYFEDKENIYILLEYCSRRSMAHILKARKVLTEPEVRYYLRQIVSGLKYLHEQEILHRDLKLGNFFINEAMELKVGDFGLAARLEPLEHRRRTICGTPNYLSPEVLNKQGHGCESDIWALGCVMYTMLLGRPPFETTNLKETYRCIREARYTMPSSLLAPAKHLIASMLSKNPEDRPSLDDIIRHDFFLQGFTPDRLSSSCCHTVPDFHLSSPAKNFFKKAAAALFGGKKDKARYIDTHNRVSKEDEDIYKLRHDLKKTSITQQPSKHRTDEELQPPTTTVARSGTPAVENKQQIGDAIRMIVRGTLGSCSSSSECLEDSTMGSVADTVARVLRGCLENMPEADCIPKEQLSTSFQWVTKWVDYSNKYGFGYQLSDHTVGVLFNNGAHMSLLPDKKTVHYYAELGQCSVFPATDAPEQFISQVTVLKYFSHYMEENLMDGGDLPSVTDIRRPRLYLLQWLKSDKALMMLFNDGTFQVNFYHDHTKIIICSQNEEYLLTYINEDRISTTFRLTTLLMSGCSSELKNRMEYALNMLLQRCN
Please note pIC50 is a logarithmic value: minus log10 of concentration in mol/L. Answer with that number alone.

Observe how each entry below is paired with its result.
[
  {
    "MOLECULE": "CC[C@@H]1C(=O)N(C)c2cnc(-n3ccnc3-c3ccc(F)cc3)nc2N1C1COC1",
    "TARGET_SYSTEM": "Serine/threonine-protein kinase PLK2 (Homo sapiens, UniProt Q9NYY3)",
    "DATA_VALUE": 5.98
  },
  {
    "MOLECULE": "CCC1C(=O)N(C)c2cnc(-n3ccnc3-c3ccc(F)cc3)nc2N1c1ccc(C#N)cc1 (racemic)",
    "TARGET_SYSTEM": "Serine/threonine-protein kinase PLK2 (Homo sapiens, UniProt Q9NYY3)",
    "DATA_VALUE": 7.51
  },
  {
    "MOLECULE": "CC[C@@H]1C(=O)N(C)c2cnc(-c3c[nH]nc3-c3ccc(F)cc3F)nc2N1c1cnn(C)c1",
    "TARGET_SYSTEM": "Serine/threonine-protein kinase PLK2 (Homo sapiens, UniProt Q9NYY3)",
    "DATA_VALUE": 6.99
  },
  {
    "MOLECULE": "CC[C@@H]1C(=O)N(C)c2cnc(-n3ccnc3-c3ccccc3)nc2N1c1cncnc1",
    "TARGET_SYSTEM": "Serine/threonine-protein kinase PLK2 (Homo sapiens, UniProt Q9NYY3)",
    "DATA_VALUE": 7.36
  },
  {
    "MOLECULE": "CC[C@@H]1C(=O)N(C)c2cnc(-n3ccnc3-c3ccc(F)cc3)nc2N1c1ccn(C)n1",
    "TARGET_SYSTEM": "Serine/threonine-protein kinase PLK2 (Homo sapiens, UniProt Q9NYY3)",
    "DATA_VALUE": 8.15
  }
]

## Task Entry CC[C@@H]1C(=O)N(C)c2cnc(-n3ccnc3-c3ccccc3)nc2N1C1CCCC1 has what pIC50?
## Result 8.30

## Task Then what about the molecule CC(C)N1c2nc(-n3ccnc3-c3ccc(F)cc3)ncc2N(C)C(=O)C1(C)C ?
## Result 5.57

## Task Then what about the molecule CCC1C(=O)N(C)c2cnc(-c3cn[nH]c3-c3ccccn3)nc2N1c1cnn(C)c1 (racemic) ?
## Result 6.77

## Task Then what about the molecule CCC1C(=O)N(C)c2cnc(-n3ccnc3-c3ccc(F)cc3)nc2N1c1cc[nH]n1 (racemic) ?
## Result 8.05

## Task Then what about the molecule CC[C@@H]1C(=O)N(C)c2cnc(-c3c[nH]nc3-c3nccs3)nc2N1[C@H]1CCOC1 ?
## Result 7.41

## Task Then what about the molecule CCC1C(=O)N(C)c2cnc(-n3ccnc3-c3ccccc3)nc2N1c1ccccc1 (racemic) ?
## Result 7.77

## Task Then what about the molecule CC[C@@H]1C(=O)N(C)c2cnc(-n3ccnc3-c3ccc(F)cc3)nc2N1[C@H]1CCOC1 ?
## Result 7.48

## Task Then what about the molecule CCC1C(=O)N(C)c2cnc(-c3cn[nH]c3-c3nccs3)nc2N1c1cnn(C)c1 (racemic) ?
## Result 6.89

====

Assay: Apparent permeability across apical to basolateral side in […] MDCK2 cells at 5 uM after 120 mins by LC/MS/MS analysis
Assay type: ADME, cell-based, MDCK-II
Settings: MDCK
Papp A→B at 2 h, 5 µM listing for selected molecules.
Give the value in nm/s but do not write nm/s after it.

[
  {
    "MOLECULE": "CC[C@@H]1C(=O)N(C)c2cnc(-c3c[nH]nc3-c3nccs3)nc2N1C(C)C",
    "UNIT_SPEC": "nm/s",
    "DATA_VALUE": 183
  },
  {
    "MOLECULE": "CC[C@@H]1C(=O)N(C)c2cnc(-c3cn[nH]c3-c3nccs3)nc2N1C1CCOCC1",
    "UNIT_SPEC": "nm/s",
    "DATA_VALUE": 189
  },
  {
    "MOLECULE": "CC[C@@H]1C(=O)N(C)c2cnc(-n3ccnc3-c3ccc(F)cc3)nc2N1c1ccn(C)n1",
    "UNIT_SPEC": "nm/s",
    "DATA_VALUE": 185
  }
]

## Task Entry CCC1C(=O)N(C)c2cnc(-c3cn[nH]c3-c3ccccn3)nc2N1c1cnn(C)c1 (racemic) has what Papp A→B at 2 h, 5 µM?
## Result 101

## Task Then what about the molecule CC[C@@H]1C(=O)N(C)c2cnc(-n3ccnc3-c3ccc(F)cc3)nc2N1c1cn[nH]c1 ?
## Result 87

## Task Then what about the molecule CC[C@@H]1C(=O)N(C)c2cnc(-c3cn[nH]c3-c3nccs3)nc2N1c1cn[nH]c1 ?
## Result 66

## Task Then what about the molecule CC[C@@H]1C(=O)N(C)c2cnc(-n3ccnc3-c3ccc(F)cc3)nc2N1c1cnn(C)c1 ?
## Result 212

## Task Then what about the molecule CC[C@@H]1C(=O)N(C)c2cnc(-n3ccnc3-c3ccccc3)nc2N1C1CCCC1 ?
## Result 114

## Task Then what about the molecule CCC1C(=O)N(C)c2cnc(-n3ccnc3-c3ccccc3)nc2N1c1cncnc1 (racemic) ?
## Result 122

====

Test: Plasma concentration in Sprague-Dawley rat at 200 mg/kg, po measured at 6 hrs
Format: ADME, organism-based
Set-up: dose 200 mg/kg, route oral
READOUT_KIND: concentration at 6 h (ng/mL)
Give the value in ng/mL but do not write ng/mL after it.

## Task Entry CC[C@@H]1C(=O)N(C)c2cnc(-n3ccnc3-c3ccc(F)cc3)nc2N1c1ccn(C)n1 has what concentration at 6 h?
## Result 4880

====

Experiment: Drug uptake in Sprague-Dawley rat brain at 100 mg/kg, po measured at 6 hrs
Format: ADME, organism-based
Parameters: dose 100 mg/kg, route oral
Details: read-out: Drug uptake
READOUT_KIND: concentration at 6 h (µM)
Give the value in µM but do not write µM after it.

## Task Entry CC[C@@H]1C(=O)N(C)c2cnc(-n3ccnc3-c3ccc(F)cc3)nc2N1c1ccn(C)n1 has what concentration at 6 h?
## Result 5.2

====

remaining at 0.5 h, 1 µM listing for selected compounds.
Assay: Metabolic stability in mouse liver microsomes assessed as compound remaining at 1 uM after 30 mins
Format: ADME, Microsome
Details: read-out: Stability
Give the value in % but do not write % after it.

Observe how each entry below is paired with its result.
[
  {
    "COMPOUND": "CC[C@@H]1C(=O)N(C)c2cnc(-c3c[nH]nc3-c3nccs3)nc2N1C(C)C",
    "READOUT_KIND": "remaining at 0.5 h, 1 µM",
    "DATA_VALUE": 33
  },
  {
    "COMPOUND": "CCC1C(=O)N(C)c2cnc(-n3ccnc3-c3ccccc3)nc2N1c1ccccc1 (racemic)",
    "READOUT_KIND": "remaining at 0.5 h, 1 µM",
    "DATA_VALUE": 28
  },
  {
    "COMPOUND": "CCC1C(=O)N(C)c2cnc(-c3cn[nH]c3-c3ccccn3)nc2N1c1cnn(C)c1 (racemic)",
    "READOUT_KIND": "remaining at 0.5 h, 1 µM",
    "DATA_VALUE": 64
  }
]

## Task Entry CC[C@@H]1C(=O)N(C)c2cnc(-n3ccnc3-c3ccccc3)nc2N1[C@@H]1CCOC1 has what remaining at 0.5 h, 1 µM?
## Result 27

## Task Then what about the compound CC[C@@H]1C(=O)N(C)c2cnc(-n3ccnc3-c3ccccc3)nc2N1CCC(F)(F)F ?
## Result 2

====

remaining at 0.5 h, 1 µM listing for selected molecules.
Assay: Metabolic stability in rat liver microsomes assessed as compound remaining at 1 uM after 30 mins
Type: ADME, Microsome
Settings: read-out: Stability
Give the value in % but do not write % after it.

[
  {
    "MOLECULE": "CC[C@@H]1C(=O)N(C)c2cnc(-n3ccnc3-c3ccc(F)cc3)nc2N1c1ccnn1C",
    "remaining at 0.5 h, 1 µM / %": 80
  },
  {
    "MOLECULE": "CC[C@@H]1C(=O)N(C)c2cnc(-n3ccnc3-c3ccccc3)nc2N1C(C)C",
    "remaining at 0.5 h, 1 µM / %": 0
  }
]

## Task Entry CC[C@@H]1C(=O)N(C)c2cnc(-n3ccnc3-c3ccc(F)cc3)nc2N1C1CC(F)(F)C1 has what remaining at 0.5 h, 1 µM?
## Result 14

## Task Then what about the molecule CC[C@@H]1C(=O)N(C)c2cnc(-c3cn[nH]c3-c3nccs3)nc2N1C1CCOCC1 ?
## Result 39

## Task Then what about the molecule CC[C@@H]1C(=O)N(C)c2cnc(-n3ccnc3-c3ccc(F)cc3)nc2N1CCC(F)(F)F ?
## Result 30

## Task Then what about the molecule CCC1C(=O)N(C)c2cnc(-n3ccnc3-c3ccccc3)nc2N1c1ccccc1 (racemic) ?
## Result 5

## Task Then what about the molecule CC[C@@H]1C(=O)N(C)c2cnc(-n3ccnc3-c3ccccc3)nc2N1[C@@H]1CCOC1 ?
## Result 0

## Task Then what about the molecule CC(C)N1c2nc(-n3ccnc3-c3ccc(F)cc3)ncc2N(C)C(=O)C12CCC2 ?
## Result 1

## Task Then what about the molecule CC[C@@H]1C(=O)N(C)c2cnc(-c3c[nH]nc3-c3nccs3)nc2N1[C@H]1CCOC1 ?
## Result 39
